- MEASUREMENT_TARGET: T1, IIB-Fc:ALK4-Fc heterodimer (human ActRIIB ECD-Fc paired with human ALK4 ECD-Fc) (human, UniProt Q13705-1 19-134; P36896-1 24-126)
- T1 construct: activin receptor type IIB (ActRIIB) extracellular domain, human, aa 19-134 of NP_001097.2; copies: 1 + 1
- T1 sequence (Q13705 19-134, chain 1 of 2): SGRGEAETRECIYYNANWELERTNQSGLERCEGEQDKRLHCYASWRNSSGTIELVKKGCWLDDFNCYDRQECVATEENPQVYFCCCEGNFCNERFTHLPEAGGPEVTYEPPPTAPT
- T1 sequence (P36896 24-126, chain 2 of 2): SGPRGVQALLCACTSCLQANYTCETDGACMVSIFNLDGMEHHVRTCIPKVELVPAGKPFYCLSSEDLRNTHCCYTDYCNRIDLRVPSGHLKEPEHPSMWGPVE
- ASSAY_PROTOCOL: SPR; Biacore 8K, 37 °C; Fc-fusion receptor dimers captured by anti-human Fc antibody on a CM5 chip (100-150 RU); ligands injected in two-fold dilution series (300 s association, 600 s dissociation); HBS-EP+ supplemented with 350 mM NaCl and 0.5 mg/mL BSA; 1:1 Langmuir model with a term for mass transport
- SETTINGS: both partners purified
QUANTITY_MEASURED: koff (s⁻¹)
The reply should contain only the number, in s⁻¹.

The measured koff associated with GDF11 (ligand, human, UniProt O95390 299-407, looked up, source: generated in house) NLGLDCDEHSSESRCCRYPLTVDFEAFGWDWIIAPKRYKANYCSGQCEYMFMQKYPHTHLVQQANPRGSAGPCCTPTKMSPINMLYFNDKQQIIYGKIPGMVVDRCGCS reads 0.000164

response.value for activin B (ligand, human, UniProt P09529 293-407, looked up, source: generated in house) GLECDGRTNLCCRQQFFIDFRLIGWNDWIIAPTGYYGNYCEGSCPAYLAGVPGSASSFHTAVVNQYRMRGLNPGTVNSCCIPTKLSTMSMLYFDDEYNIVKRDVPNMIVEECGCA (field: koff) = 8.07e-05

--- query ---
The recorded koff for entry activin A (ligand, human, UniProt P08476 311-426, looked up, source: generated in house) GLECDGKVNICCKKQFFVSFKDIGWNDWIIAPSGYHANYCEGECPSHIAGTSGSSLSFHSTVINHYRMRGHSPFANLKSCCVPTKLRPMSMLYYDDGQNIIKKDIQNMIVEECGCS equals 0.000139
